# assayed target: human FGF-1 (flg) receptor tyrosine kinase (Homo sapiens, UniProt P11362)
# Construct: a fragment of DNA that codes for the intracellular tyrosine kinase domain
# Sequence (P11362 478-767 limits assumed): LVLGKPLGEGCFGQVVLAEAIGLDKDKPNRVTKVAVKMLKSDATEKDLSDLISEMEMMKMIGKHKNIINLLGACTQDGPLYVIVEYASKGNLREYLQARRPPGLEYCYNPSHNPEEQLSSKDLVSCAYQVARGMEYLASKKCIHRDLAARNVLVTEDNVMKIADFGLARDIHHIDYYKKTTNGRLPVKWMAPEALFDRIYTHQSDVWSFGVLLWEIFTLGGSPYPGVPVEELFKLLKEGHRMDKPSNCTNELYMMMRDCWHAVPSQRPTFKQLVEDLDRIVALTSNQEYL
# test summary: FGF receptor tyrosine kinase assay
# details: read-out: Inhibition of Protein Tyrosine Kinases, FGF, IC50

{"compound string": "Cc1ccccc1-c1cc2cnc(N)nc2nc1N", "IC50": "11500 nM"}
{"compound string": "CN1CCN(CCCNc2ncc3cc(-c4c(Cl)cccc4Cl)c(NC(=O)Nc4cccc5ccccc45)nc3n2)CC1", "IC50": "305 nM"}
{"compound string": "CCCCNc1nc2nc(N)ncc2cc1-c1ccccc1", "IC50": "10600 nM"}
{"compound string": "COc1cccc(-c2cc3cnc(N)nc3nc2NC(=O)NC(C)(C)C)c1", "IC50": "300 nM"}
{"compound string": "CCN(CC)CCCNc1ncc2cc(-c3c(Cl)cccc3Cl)c(NC(=O)NC(C)C)nc2n1", "IC50": "77 nM"}
